Subject of test: Cellular tumor antigen p53 (Homo sapiens)
Protocol notes: nuclear p53 accumulation, HPV+ cells – imaging, p53-positive nuclei imaging, 24 h, 48 h (AID 1508601)
Protocol conditions: 24/48 h, Library stock concentration: 123 uM, stronger effect = higher value
Among all 5,700 compounds or so, about 85 (1%) were called active. This is one part of a sample in which actives are shown more often than they occur.
Entries and their measured p53-positive nuclei, normalised follow.

QUERY: # p53-positive nuclei, normalised lookup, item CN(C)CCC(CSc1ccccc1)Nc1ccc(S(=O)(=O)NC(=O)c2ccc(N3CCN(Cc4ccccc4-c4ccc(Cl)cc4)CC3)cc2)cc1[N+](=O)[O-] (stereo not given)
RESULT: -0.176% (inactive)

QUERY: For the molecule CCOC(=O)c1sc(NC(=O)c2ccco2)c(SC#N)c1C , what p53-positive nuclei, normalised is on record?
RESULT: 0.0394% (inactive)

QUERY: Recorded p53-positive nuclei, normalised for C=C1C(=O)OC(CCCCCCCC)C1C(=O)O (stereo not given) , please?
RESULT: -0.155% (inactive)

QUERY: Given the molecule COC(=O)C#Cc1ccc([N+](=O)[O-])cc1 , what is its reported p53-positive nuclei, normalised?
RESULT: 0.00469% (inactive)

Turning now to a further record.
QUERY: Fill in: p53-positive nuclei, normalised of OC(c1cc(C(F)(F)F)nc2c(C(F)(F)F)cccc12)[C@H]1CCCCN1 (stereo not given in full) is ___
RESULT: -0.102% (inactive)

* * *

Subject of test: Cellular tumor antigen p53 (Homo sapiens) (UniProt P04637)
Sequence (P04637 whole entry, looked up): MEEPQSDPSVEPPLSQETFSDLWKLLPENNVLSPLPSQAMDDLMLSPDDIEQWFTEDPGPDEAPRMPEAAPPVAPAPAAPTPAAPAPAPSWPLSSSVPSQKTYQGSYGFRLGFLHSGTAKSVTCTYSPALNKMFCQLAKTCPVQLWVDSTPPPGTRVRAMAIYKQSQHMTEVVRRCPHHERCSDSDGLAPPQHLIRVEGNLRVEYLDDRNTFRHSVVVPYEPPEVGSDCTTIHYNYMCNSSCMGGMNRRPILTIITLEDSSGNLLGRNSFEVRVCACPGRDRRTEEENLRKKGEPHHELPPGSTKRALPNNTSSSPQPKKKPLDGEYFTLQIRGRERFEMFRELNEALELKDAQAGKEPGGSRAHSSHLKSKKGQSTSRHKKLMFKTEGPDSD
Protocol notes: nuclear p53 accumulation, HPV+ cells – imaging, p53-positive nuclei imaging, 24 h, 48 h (AID 1508601)
Protocol conditions: 24/48 h, Library stock concentration: 80 uM
Out of some 5,700 compounds screened, about 85 (1%) were called active. Cut-off read from the data, not from the text of the source: active = p53-positive nuclei above about 36% (passing the limit was not always enough); inactive = the rest. What follows is part of a selection rich in actives, with near analogues and random picks from the rest.
Could you please pick one outcome from this set? active, inactive

QUERY: # fetch the recorded call for CCC(C)C(NC(=O)C(C(C)CC)N(C)C(C)=O)C(=O)NC(C(=O)NC(CC(C)C)C(=O)[C@@]1(C)CO1)C(C)O (some centres undefined) here
RESULT: active

QUERY: Which outcome did this test record for the compound COC(=O)C=CC(=O)N(O)CCCCNCc1ccc(COC(=O)Nc2cccc3ccccc23)cc1 ?
RESULT: inactive

QUERY: Called result for O=C(NOCC(O)CO)c1ccc(F)c(F)c1Nc1ccc(I)cc1F (centres undefined)
RESULT: inactive

QUERY: Outcome? Cc1nc(Nc2n[nH]c3c2CN(C(=O)NC(CN(C)C)c2ccccc2)C3(C)C)c2sccc2n1 (centres undefined)
RESULT: inactive

Next:
QUERY: Entry CN1CCN(c2ccc(Nc3c4ccccc4nc4ccccc34)cc2)CC1 : call = ?
RESULT: inactive

QUERY: Check the results log: what was the call for CS(=O)(=O)c1ccc(C(CC2CCCC2)C(=O)Nc2nccs2)cc1 (centres undefined) ?
RESULT: inactive

QUERY: Record lookup: outcome of this test for CC(C)(CO)c1cc2cc(NC(=O)C3(c4ccc5c(c4)OC(F)(F)O5)CC3)c(F)cc2n1CC(O)CO (centres undefined) ?
RESULT: inactive

QUERY: // outcome(item) with item = Cn1cc(CNCC2CCN(c3ncc(C(=O)NO)cn3)CC2)c2ccccc21
RESULT: inactive

QUERY: Outcome? O=C(C=Cc1cccc(S(=O)(=O)Nc2ccccc2)c1)NO
RESULT: inactive

* * *

Protocol notes: nuclear p53 accumulation, HPV+ cells – imaging, p53-positive nuclei imaging, 24 h, 48 h (AID 1508601)
Protocol conditions: 24/48 h, measured here: cell number at 48 h, Library stock concentration: 80 uM
The campaign covered roughly 5,700 compounds. About 85 (1%) were called active. The entries come from a sample that favours actives as a whole.
Entries and their nuclei count, normalised values follow.
A number alone suffices; assume %.

QUERY: Consider the compound shown here: COc1ccc2nc3ccc(OC)cc3c(SCCCN)c2c1 What is its recorded nuclei count, normalised?
RESULT: 119

QUERY: Using the record for Nc1ncn([C@@H]2O[C@@H](CO)[C@H](O)[C@@H]2O)c(=O)n1 , report its nuclei count, normalised.
RESULT: 122

QUERY: # nuclei count, normalised lookup, item COC(=O)c1c(NC(=O)CC2SC(=N)NC2=O)sc(C)c1C (centres undefined)
RESULT: 108

Please examine the following record next.
QUERY: Recorded nuclei count, normalised for CN1CCN(C(=S)SSC(=S)N2CCN(C)CC2)CC1 , please?
RESULT: 109

* * *

Protocol notes: nuclear p53 accumulation, HPV+ cells – imaging, p53-positive nuclei imaging, 24 h, 48 h (AID 1508601)
Protocol conditions: 24/48 h, measured here: cell number at 48 h, Library stock concentration: 10 mM
About 85 (1%) of roughly 5,700 compounds were called active. The sample as a whole holds a higher share of actives than the screen did.
Binary call on nuclei count, normalised with cut-off 50%: strictly below means Yes, and equality or higher means No.

For orientation, consider the following solved cases.
QUERY: Does the reported nuclei count, normalised of the following compound sit strictly below 50%? OCC1OC(n2cnc3c2NC=NCC3O)CC1O (stereo not given)
RESULT: No

QUERY: Please indicate whether the reported nuclei count, normalised of CC(=O)OC1C(=O)[C@]2(C)C(O)CC3OC[C@@]3(OC(C)=O)C2C(OC(=O)c2ccccc2)[C@]2(O)CC(OC(=O)C(O)C(NC(=O)c3ccccc3)c3ccccc3)C(C)=C1C2(C)C (stereo not given in full) is strictly below 50%.
RESULT: Yes

QUERY: State whether 50% exceeds nuclei count, normalised recorded for CCOC(=O)c1sc(NC(=O)c2ccco2)c(SC#N)c1C .
RESULT: No

QUERY: Regarding O=Nc1c(-c2c(O)[nH]c3cc(Br)ccc23)[nH]c2ccccc12 , kindly confirm whether its nuclei count, normalised is beneath 50%.
RESULT: Yes

New cases:
QUERY: Hello, is nuclei count, normalised of the following compound strictly smaller than 50%? COc1ccc(Cn2ccc3ccc(C(=O)NO)cc32)cc1
RESULT: No

* * *

Subject of test: Cellular tumor antigen p53 (Homo sapiens)
Protocol notes: nuclear p53 accumulation, HPV+ cells – imaging, p53-positive nuclei imaging, 24 h, 48 h (AID 1508601)
Protocol conditions: 24/48 h, Library stock concentration: 80 uM
In all, about 5,700 compounds went through this assay and about 85 (1%) were called active. Cut-off read from the data, not from the text of the source: active = p53-positive nuclei above about 36% (passing the limit was not always enough); inactive = the rest. The sample holds actives, similar compounds and a random draw of the others, so the mix is not that of the screen.
Select the matching outcome among active, inactive

Previously resolved entries follow.
QUERY: Test call, this compound: c1cc(NCCc2c[nH]c3ccccc23)cc(Nc2ccncc2)c1
RESULT: inactive

QUERY: Call for entry COc1ccc(Cn2ccc3ccc(C(=O)NO)cc32)cc1 :
RESULT: inactive

QUERY: Hi team, can someone confirm the assay call for Cn1cc(C2=C(c3cn(CCCSC(=N)N)c4ccccc34)C(=O)NC2=O)c2ccccc21 ?
RESULT: inactive

QUERY: Recorded test outcome, item CCCCN(Cc1ccc(C(=O)NO)cc1)C(=O)Nc1ccccc1
RESULT: inactive

QUERY: Field: outcome | Entry: O=C1NCCCc2c1oc1ccc(O)cc21
RESULT: inactive

QUERY: For CCN1CCN(Cc2ccc(Nc3ncc4c(n3)N(C)c3ccccc3C(=O)N4C)cc2C(F)(F)F)CC1 , which call appears in the assay record?
RESULT: inactive

QUERY: Assay result, entry COc1cc(OC)cc(-c2ccc3ncc4ccc(=O)n(-c5ccc(N6CCNCC6)c(C(F)(F)F)c5)c4c3c2)c1 — outcome?
RESULT: inactive

QUERY: Outcome logged for NC(=O)c1ccc(-c2nc(-c3ccc4c(c3)OCCO4)c(-c3ccccn3)[nH]2)cc1 in this assay:
RESULT: inactive

Continuing:
QUERY: Recorded test outcome, item Fc1cc(-c2ccnc(Nc3ccc(-n4cnc(N5CCOCC5)n4)cc3)n2)cc(N2CCOCC2)c1
RESULT: inactive

QUERY: Dear all, I need the recorded test outcome for CN1CCC(c2c(O)cc(O)c3c(=O)cc(-c4ccccc4Cl)oc23)C(O)C1 (stereo not given) , thank you.
RESULT: inactive

* * *

Subject of test: Cellular tumor antigen p53 (Homo sapiens)
Protocol notes: nuclear p53 accumulation, HPV+ cells – imaging, p53-positive nuclei imaging, 24 h, 48 h (AID 1508601)
Protocol conditions: 24/48 h, measured here: p53 positive nuclei at 24 h, Library stock concentration: 400 uM, stronger effect = higher value
In all, about 5,700 compounds went through this assay and about 85 (1%) were called active. The entries come from a sample that favours actives as a whole.
Reported p53-positive nuclei, normalised by item:
Record the value in %, omitting the unit from your answer.

Solved entries (count: 8):
QUERY: Which p53-positive nuclei, normalised value belongs to COC(=O)c1c(NC(=O)CC2SC(=N)NC2=O)sc(C)c1C (stereo not drawn) ?
RESULT: -0.116

QUERY: Sample O=C(Nc1ccc(-c2ccnc(Nc3ccc(N4CCOCC4)cc3)n2)cc1)C1CCCN1 (stereo not drawn) — what was its p53-positive nuclei, normalised?
RESULT: -0.114

QUERY: Need p53-positive nuclei, normalised, item CN1CCC(c2c(O)cc(O)c3c(=O)cc(-c4ccccc4Cl)oc23)C(O)C1 (stereo not drawn)
RESULT: 7.22

QUERY: Given the molecule O=C(C=Cc1cccc(S(=O)(=O)Nc2ccccc2)c1)NO , what is its reported p53-positive nuclei, normalised?
RESULT: 1.2

QUERY: Which p53-positive nuclei, normalised reading was recorded for the molecule CCc1cnn2c(NCc3ccc[n+]([O-])c3)cc(N3CCCCC3CCO)nc12 (stereo not drawn) ?
RESULT: 6.74

QUERY: Entry Fc1cc(-c2ccnc(Nc3ccc(-n4cnc(N5CCOCC5)n4)cc3)n2)cc(N2CCOCC2)c1 has what p53-positive nuclei, normalised?
RESULT: 2.88

QUERY: What does the data say about its p53-positive nuclei, normalised? Entry: O=C(O)C=Cc1ccc(Cn2ccnc2)cc1
RESULT: 0.0107

QUERY: What value of measured p53-positive nuclei, normalised is listed for CN1CCC(c2c(O)cc(O)c3c(=O)cc(-c4ccccc4Cl)oc23)C1CO (stereo not drawn) ?
RESULT: 6.89

New cases:
QUERY: p53-positive nuclei, normalised lookup needed for CN1CC[C@H](c2c(O)cc(O)c3c(=O)cc(-c4ccccc4Cl)oc23)C(O)C1 (stereo partly drawn) , thanks.
RESULT: 2.03

QUERY: Which value of p53-positive nuclei, normalised has been reported for O=Nc1c(O)[nH]c2c(Cl)c(Cl)ccc12 in the records?
RESULT: 0.0912

QUERY: Given CCCCN(Cc1ccc(C(=O)NO)cc1)C(=O)Nc1ccccc1 , state its recorded p53-positive nuclei, normalised.
RESULT: -0.12

QUERY: Look up p53-positive nuclei, normalised for this molecule: COc1cc(C(=O)NS(=O)(=O)c2ccccc2C)ccc1Cc1cn(C)c2ccc(NC(=O)OC3CCCC3)cc12
RESULT: -0.0637

QUERY: Using the record for CCCCc1ccc(N=CNO)c(C)c1 , report its p53-positive nuclei, normalised.
RESULT: 0.0745
